Record form. Attribute: shrunken log2 fold change. Fill in for each entry.
tested on: Escherichia coli TOP10; test: shrunken log2 fold change of peptide-encoding DNA abundance (4.5 h post-induction vs induction); higher = less antimicrobial activity (less host growth inhibition); details: time post-induction: 4.5 h; library: site-saturation at positions 5, 18, 19, 20;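 note: peptides expressed intracellularly from a pBAD plasmid library in pooled LB shake-flask culture, induced with 0.3% L-arabinose, DNA abundance read by NGS, three biological replicates, DESeq2 with apeglm shrinkage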
The reply should be a number, written without any unit.

Please look at this sequence and report its shrunken log2 fold change: RRIRPRPPRLPRPRPRPVHAPRP
0.441

Write down shrunken log2 fold change measured for item RRIRKRPPRLPRPRPRPTRQPRP
0.724

Kindly indicate its recorded shrunken log2 fold change. Item: RRIRWRPPRLPRPRPRPKHWPRP
0.4

Provide shrunken log2 fold change value for the following sequence: RRIRLRPPRLPRPRPRPPPWPRP
0.892

Item RRIRCRPPRLPRPRPRPDMIPRP : provide shrunken log2 fold change
-0.69

Give reported shrunken log2 fold change value for RRIRKRPPRLPRPRPRPKSLPRP
0.107

# return recorded shrunken log2 fold change for input RRIRPRPPRLPRPRPRPWEAPRP
-0.224

# return recorded shrunken log2 fold change for entry RRIRNRPPRLPRPRPRPVMAPRP
0.156

Reference for the values: the supplement of paper PMC9112550
